Biological target: T1, human IL-2Rβγ receptor on primary human T-cells and NK-cells (PBMCs) (human, UniProt P14784 27-551; P31785 23-369)
T1 construct: Endogenous receptor on primary cells; also called dimeric IL-2Rβγ receptor complex
T1 sequence 1: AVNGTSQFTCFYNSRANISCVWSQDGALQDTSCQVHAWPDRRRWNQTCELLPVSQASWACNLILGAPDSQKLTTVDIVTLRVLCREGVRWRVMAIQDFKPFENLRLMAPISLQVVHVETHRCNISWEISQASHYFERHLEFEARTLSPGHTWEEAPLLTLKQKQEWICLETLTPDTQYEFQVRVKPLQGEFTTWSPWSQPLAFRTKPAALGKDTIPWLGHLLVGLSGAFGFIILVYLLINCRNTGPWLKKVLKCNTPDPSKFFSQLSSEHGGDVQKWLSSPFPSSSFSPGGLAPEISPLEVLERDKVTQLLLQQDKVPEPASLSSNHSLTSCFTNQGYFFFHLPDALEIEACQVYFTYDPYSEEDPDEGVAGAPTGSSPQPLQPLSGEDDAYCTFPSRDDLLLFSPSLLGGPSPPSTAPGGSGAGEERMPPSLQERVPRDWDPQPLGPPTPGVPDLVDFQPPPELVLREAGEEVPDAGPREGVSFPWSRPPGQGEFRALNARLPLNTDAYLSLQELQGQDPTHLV
T1 sequence 2: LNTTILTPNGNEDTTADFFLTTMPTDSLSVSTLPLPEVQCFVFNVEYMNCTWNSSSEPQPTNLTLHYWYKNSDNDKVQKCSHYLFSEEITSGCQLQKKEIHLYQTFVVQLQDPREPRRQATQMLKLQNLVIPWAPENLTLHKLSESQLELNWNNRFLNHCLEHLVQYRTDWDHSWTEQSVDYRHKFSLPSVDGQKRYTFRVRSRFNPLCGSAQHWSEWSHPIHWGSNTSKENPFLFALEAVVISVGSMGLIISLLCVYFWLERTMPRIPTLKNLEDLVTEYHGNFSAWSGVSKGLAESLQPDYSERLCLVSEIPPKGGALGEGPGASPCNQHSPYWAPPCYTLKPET
Experiment: flow cytometry cell binding on human CD4+ T-cells (PBMC), gMFI as fold over secondary antibody only
Assay Endpoint: EC50 (read off the curve)

Binder	EC50 (read off the curve)
BsAb-1 (IL2RB_F09C**IL2RG_F16A) (bispecific antibody, human IgG4, V domains shown, Heavy chain-only bispecific on silenced, stabilised human IgG4 Fc, knobs-into-holes, no light chains; not shown: C-terminal His-tag on the knob chain) V domain 1: QVQLQESGPGLVKPSGTLSLTCAVSGGSISSSDWWSWVRQPPGKGLEWIGEIDHSGSTNYNPSLMSRVTISVDKSKNQFSLKLSSVTAADTAVYFCGRGSWELSDAFDIRGQGTLVTVSS V domain 2: QVQLVESGGGLVKPGGSLRLSCAASGFTFSDYYMSWIRQAPGKGLEWVSSISSSGDTIYYADSVQGRFTLSRDNAENSLFLQMNSLRAEDTAVYYCARGDAVSITGDYRGQGTLVTVSS	~7 nM

Could you now look at the following binder, please?
What value of EC50 (read off the curve) has been reported for the following binder? BsAb-4 (IL2RB_F09G**IL2RG_F18A) (bispecific antibody, human IgG4, V domains shown, Heavy chain-only bispecific on silenced, stabilised human IgG4 Fc, knobs-into-holes, no light chains; not shown: C-terminal His-tag on the knob chain) V domain 1: QVQLQESGPGLVKSSETLSLTCTVSGGSISSSDWWSWVRQPPGKGLEWIGEIDHSGSTNYNPSLMSRVTISVDKSKNQFSLKLSSVTAADTAVYFCARGSWELTDAFDIRGQGTLVTVSS V domain 2: QVQLVESGGDLVKPGGSLRLSCAASGFTFSDYYMSWLRQAPGKELEWVSHISSSGTTTYYADSVEGRFTITRDNAKNSLYLQMNSLRAEDTAVYYCARGAAVAPGFDSRGQGTLVTVSS
~4 nM
